protocol_description: yeast display, Sf9 membrane polyspecificity reagent, FACS + sequencing; frameworks hold sequencing errors
readout_label: polyreactivity (PSR sort gate)

Here's what some known entries look like.
- polymer_sequence: "QVQLVESGGGLVQAGGSLRLSCAASGSIFNLNAMGWYIQAPGKERELVASISSDRSTYYADSVKGRFTISRDNAKNTVYLQMNSLKQEDTAVYYCNADSQLAFKQLSFDYWGQGTQVTVSS"
  measured_result: "low polyreactivity"
- polymer_sequence: "QVQLVESGGGLVLAGGSLRLSCAASGRIFTNNVMGWYRQAPGKERELVAAISRSGGRTYYADSVKGRFTISRDNAKNTVYLQMNSLKPEDTAVYYCAAVYQKAATDKYESVYESYYWGQGTQVTVSS"
  measured_result: "high polyreactivity"
- polymer_sequence: "QVQLVESGGGLVQAGGSLRLICAASGSTFLTNVMGWYRQAPGKERELVAAISRGGGRTYYADSVKGRFTISRDNAKNTVYLQMNSLKPEDTAVYYCNAVDASHAGPVGGAFRYDYWGQGTQVTVSS"
  measured_result: "high polyreactivity"
- polymer_sequence: "QVQLVESGGGIVQAGGSLRLSCAASGSTSSSDDMGWYRQAPGQERELVADITSGGRTYYADSVKGRFTISRDNAKNTVYLQMNSLKPEATAVYYCAADTIEHYSLVTPTQGKFDSWGQGTQVTVSS"
  measured_result: "low polyreactivity"

Given QVQLVESRGGLVQAGGSLRVSCAASGRTFGVNAMGWYRQAPGKERELVAAISTSGGSTYYADSVKGRFTISRDNAKNTVYLQMNSLIPEDTAVYYCNTGRGRYVHGRDYDYWGQGTQVTVSS , state its recorded polyreactivity (PSR sort gate).
low polyreactivity

###

protocol_description: yeast display, Sf9 membrane polyspecificity reagent, FACS + sequencing; frameworks hold sequencing errors
readout_label: polyreactivity (PSR sort gate)

Here's what some known entries look like.
- polymer_sequence: "QVHLVESGGGLVQAGGSLRLSCAASGSTFRYYAMGWYRQAPGKERELVATINRSGGSTYYADSVKGRFTISRDNAKNTVYLQMNSLKPEDTAVYYCAATHYYSHFLWFASNYDYWGQGTQVTVSS"
  measured_result: "high polyreactivity"
- polymer_sequence: "QVQLVESGGGLVQAGGSLRLSCAASGFILYQNALGWYRQAPGKERELVAAITESDGITYYADSVKGRFTISRDNAKNTVYLQMNSLKPEDTAVYDCNTGFSYTYDYWGQGTQVTVSS"
  measured_result: "low polyreactivity"
- polymer_sequence: "QVKLVESGGGLVQAGGSLRLSCAASGSTFPGYAMGWYRQAPGKERELVAAGGSTYYADSVKGRFTISRDNAKNTVYLQMNSLKTEDTAVYYCAATWGSVQKGTYYYWGQGTQVTVSS"
  measured_result: "low polyreactivity"
- polymer_sequence: "QVQLVESGGGLVQAGGSLRLSCAASGRIFQDYAMGWYRQAPGKERELVASIRWSSTSTYYADSVKGRFTISRDNAKNTVYLQMNSLKPEVSAVYYCAKRPFYLTYFRDDYWGQGTQVSVSS"
  measured_result: "low polyreactivity"

Moving on to another sequence below.
Given QVQLVESGGGLVQAGGSLRLSCAASGLIFARNAMGWYRQAPGKETELVAAISKRGGSTYYADSVKGRFTISRDNAKNTVYLQMNSLKPDDTAVYYCNARYFRWWDMGYWGQGTQVNVSS , state its recorded polyreactivity (PSR sort gate).
high polyreactivity

###

protocol_description: yeast display, Sf9 membrane polyspecificity reagent, FACS + sequencing; frameworks hold sequencing errors
readout_label: polyreactivity (PSR sort gate)

Here's what some known entries look like.
- polymer_sequence: "QVQLVESGGGLLQAGGSLRLSSAASGIIFYAYAMGWYRQAPGKERELVAAITFSAVSTYYADSVKGRFTISRDNAKNTVYLQMNCLKPEDTAVYYCAAEAYKHGVWDYDYWGQGTQVTVSA"
  polyreactivity (PSR sort gate): "low polyreactivity"
- polymer_sequence: "QVQLVDSGGGLVQAGGSLRLSCAASGSIFSVYAMGWYRQAPGKERELVAAISSRGGSTYYADSVKGRFTISRDNAKNTVYLQMNSLKPEDTAVYYCAASRQSQRGYWGQGTQVTVSS"
  polyreactivity (PSR sort gate): "high polyreactivity"
- polymer_sequence: "QVQLVESGGGLVQAGGSLRLSCAASGRNFPVYAMGCYRQAPGKERELVAAMTRSDDSTYYADSVKGRFTISRDNAKNTVYLQMNSLKPEDTAVYYCAADVEGWTVESDVYRVGYDFWGQGTQVTVSS"
  polyreactivity (PSR sort gate): "low polyreactivity"
- polymer_sequence: "QVQLVESGGGLVQAGGSLRLSCAASGRTFGSYAMGWYRQAPGKERELVAAISYRGSTYYADSVKGRFTISRDNAKNTVYLQMNSLKPEDTAVYYCAARSYGGYGYWGQGTQVTVSS"
  polyreactivity (PSR sort gate): "high polyreactivity"
- polymer_sequence: "QVQLVESGGGLVQAGGSLRLSCAASGLIFPSYARGWYRQAPGKERELVAGINSGGSTNYADSVKGRFTISRDNAKNTVYLQMNSLKPEDTAVYYCAKDNNYYWYVSPRDYWGQGTQVTVSS"
  polyreactivity (PSR sort gate): "low polyreactivity"

Given QVQLVESGGGLVQAGGSLRLRCAASGIIFYRNVMGWYRQAPGKERELVAAISGRGGSTYYADSVKGRFTISRDNAKNTVYLQMNILKPEETAVYYCATDTRTWRFTRGAWYTYGSDYWGQGTQVTVSS , state its recorded polyreactivity (PSR sort gate).
high polyreactivity

Given QVQLVESGGGLVQAGGSLRLSCAASVFTLWLNAMGWYRQAPGKERELVAAITTSDDGTYYADSVKGRFTISRDNAKNTVYLQMNSLKPEDTAVYYCAADYYSVLYDYWGQGTQVTVSS , state its recorded polyreactivity (PSR sort gate).
low polyreactivity

Given QVQLVESGGGLVQAGGSLRLSCAASGSIFYGYAMGWYRQAPGKERELVAAIRWSDGSTYYADSVKGRFTISRDNAKNTVYLQMNSLKPEDTAVYYCNADLWVPSYLWGDYWGQGTQVTVSS , state its recorded polyreactivity (PSR sort gate).
low polyreactivity

Given QVQLVESGGGLVQAGGSLRLSCAASGFIFVLYTMGWYRQAPGKEREMVASITQSGGSTYYADSVKGRFTISRDNAKNTVYLQMNSLKPEDTAVYYCAAVWAHEWWELDYWGQGTQVTVSS , state its recorded polyreactivity (PSR sort gate).
low polyreactivity

Given QVQLVESGGCLVKAGGSLRLSCAASGSIFGHYAMGWYRQAPGKERELVASIDSGGRTNYADSVKGRFTISLDNAKNTVYLQMISLKPEDTGVYYCNTTSVKTRGYGYWGQGSQVTVSS , state its recorded polyreactivity (PSR sort gate).
low polyreactivity

Given QVQLVESGGGLVQAGGSLRLSCAASGSIFYNTMGWYRQAPGKERELVAAISGTRASTYYADSVKGRFTISRDNAKNTVYLQMNSLKPEDTAVYYCAAVPAYPRDYDYWGQGTQVTVSS , state its recorded polyreactivity (PSR sort gate).
low polyreactivity

###

protocol_description: yeast display, Sf9 membrane polyspecificity reagent, FACS + sequencing; frameworks hold sequencing errors
readout_label: polyreactivity (PSR sort gate)

Here's what some known entries look like.
- polymer_sequence: "QVQLVESGGGLVQAGGSLRLSCAASGFIFPGNAMGWYRQAPGKEREFVAVISGSGGSTYYADSVKGRFTISRDNAKNTVYLQMNSLKPEDTAVYYCAAVYRDKSQRADYDYWGQGTQVTVSS"
  polyreactivity (PSR sort gate): "high polyreactivity"
- polymer_sequence: "QVQLVESGGGLVQAGGSLRLSCAASGSTFVVNVMGWYRQAPGKERELVAAITYRSGSTYYADSVKGSFTISRDNAKNTVYLQMNSLKPEDTAVYYCAAGYYSRYYVAFEYYYWGQGTQVTVSS"
  polyreactivity (PSR sort gate): "high polyreactivity"
- polymer_sequence: "QVQLVESGGCLVQAGGSLRLSCAASGSTFGLYAKGLYRQAPGTEREFVAAITSTGGSTYFADSVKGRFTISRDNAQNTVYLQLNSLKPEDTAVYDSYADFFVWRYPHYLIFGYWGQGTQVTVSS"
  polyreactivity (PSR sort gate): "low polyreactivity"
- polymer_sequence: "QVQLVESGGGLVQAGGSLRLSCAASGRIFTANVMGWYRQAPGKERELVAAIDYSGGSTYYADSVKGRFTISRDNAKNTVYLQMNSLKPEDTAVYYCNRDDYADYYHLEYDYWGQGTQVTVSS"
  polyreactivity (PSR sort gate): "low polyreactivity"
- polymer_sequence: "QVQLVESGGGLVQAGGSLRLSCAASGRTFTDYTMGWSRQAPGKERELVASISSGVTYADSVKGRFTISRDNAKYTVYLQMNSLKPEDTEVYYCAARLWYVQGYVPYVHHRFDYWGQGTQVTVSS"
  polyreactivity (PSR sort gate): "low polyreactivity"
- polymer_sequence: "QVQLVESGGGVVQAGGSHRLSCAASGRTFRGNAMGWYRQAPGTERELVATITCSGGSTYYADSVKGRFTISRDNAKNTGYLQMNSLKPEDTAGYAGAVRGLHLVWVPFGYDYWRQGTQVTVSS"
  polyreactivity (PSR sort gate): "low polyreactivity"
- polymer_sequence: "QVQLVESGGGLVQAGGSLRVSCAASGLNFYGNAMGWYRQAPGKERELVAAISWSGGNTSYADSVKGRFTISRDNAKNTVYLQMNSLKPDDTAVYYCNADSLPSVERYGYWGQGTQVTVSS"
  polyreactivity (PSR sort gate): "low polyreactivity"
- polymer_sequence: "QVQLVESGGGLVQAGGSLRLICAASGFTFRAYAMGWYRQAPGKERELVAAISTVGGSTYYADSVKGRFTISRDNAKNTVYLQMNSLKPEETAVYYCAARRRTGREYGYWGKGTQVTVSS"
  polyreactivity (PSR sort gate): "high polyreactivity"
- polymer_sequence: "QVQLVESWGGLVQAGGSLRLSCAASGSTFVINAMGWYSQAPGKERELVAAITWGGGRTYYADSVKGRFTISRDNAKNTVYLQMNSLKPEDTAVYYCAAVGSGWKGDYWGQGTQVTVSS"
  polyreactivity (PSR sort gate): "low polyreactivity"
- polymer_sequence: "QVQLVESGGGLVQAGGSLRLSCASSGFIFSSYAMGWYRQAPGKERELVARISLSGGSTFYADSVKGRFTISRDNAKNTVYFQMNSLKPEDTAVYYCAARDFSTHFSPMDYWGQGTQVTVSS"
  polyreactivity (PSR sort gate): "low polyreactivity"

Given QVQLVESGGGLVQAGGSLRLSCAASGRIFDDNAMGWYRQAPGKETELVAAISSSGGSTYYADSVKGRFTISRDNAKNSVYLQMNSLKPEDTAVYYCAKAPGQDTPYPYGYWGQGTQVTVSS , state its recorded polyreactivity (PSR sort gate).
high polyreactivity

Given QVQLEESGGGLVQAGGSLRLSCAASGRIFIKNAMGWYRQAPGKVRELVAAISARGGSTYYADSVKGRFTISRDIAKNTVYLEMNSLKPEDTAVYDCAVDVYEPRYRRPLHHDYWGQGTQVTVSS , state its recorded polyreactivity (PSR sort gate).
low polyreactivity

Given QVQLVESGGGLVQAGGSLRLSCDASGSTIDWYAMGWYRQAPGKERELVAGITISAGRTYYADSVKGRFTISRDNAKNTVYLQMNSLKPEDTAVYYCAADVYYYLDMDHWGQGTQVTVSS , state its recorded polyreactivity (PSR sort gate).
low polyreactivity

Given QVQLVESAGRLVKAGGSLRLSCDASGSIFKGNAMGWYRQEPGKERELVAAISRTGGSTYYADSVKGRFTISRDNAKNTVYLQMNSLKPEDTAVYYCAAYSASTYDSWGQGTQVTVSS , state its recorded polyreactivity (PSR sort gate).
high polyreactivity

Given QVQLVESGGGLVQAGGSLRLSCAASGSTFDSYAMGRYRQAPGKERELVAAITNGGSTYYADSVKGRFTISRDNAKNTVYLQMHSLKPEDTAGYYCATDDYLLDNLYDYWGQGTQVTVSS , state its recorded polyreactivity (PSR sort gate).
low polyreactivity

Given QVQLVETGGGLVQAGGSLRLSCAASGRIFGHYVMGWYRPAPGTERELVAAITWRGGSTYYADSVKGRFTISRDYAKNTVYLQMNSLKPEDTAVYDCNASPSEVRRRYDYWGQGTQVTVSS , state its recorded polyreactivity (PSR sort gate).
high polyreactivity

Given QVQLVESGGGLVQAGGSLRLSCAASGSIFAFYAMGWYRQSPGKERELVAAISYNGGSTYYADSVKVRFTLSRDNAKNTVYLQMNSLEPEDTAVYYCAAYHFSAPSEYDYWGQGTQVTVSS , state its recorded polyreactivity (PSR sort gate).
low polyreactivity

Given QVQLVESGGGLVQAGGSLRLSCAASGRTFARNAMGWYRPAPGKERELVAAIPRSGGSTYYADSVKGRFTISRDNAKNTVYLQMNSLKPEDTADYYCAAVGTGSSLRYDYWGQGTQVTVSS , state its recorded polyreactivity (PSR sort gate).
high polyreactivity

Given QVQLVESGGGLLQAGGSLRKSCAASGFTFDENSMGGYRQAPAINYSGASTYYAVSVKGRFTISRDNAKNTVYLQMNSLKPEDTAVYYCAAEVVAQMIYWGQGTQVTVSS , state its recorded polyreactivity (PSR sort gate).
low polyreactivity

Given QVQLVESGGGLVQAGGSLRLSCAASGITFYSYAMGWYRQAPGKERELVAAITRGGSTYYADSVKGRFTISRDNAKNTVYLQMNSLKPEDTAVYYCAASPLGGYGYWGQGTQVTVSS , state its recorded polyreactivity (PSR sort gate).
high polyreactivity

Given QVQLVESGGGLVQAGGSLRLSCAASGLIFYRNAMGWYRQAPGKERELVAAISVSGGRTYYADSVKGRFTISRDNAKNTVYLQMNSLKPEDTAVYYCAAYGTTRMDYWGQGTQVTVSS , state its recorded polyreactivity (PSR sort gate).
high polyreactivity
